test: Inhibition of Dengue virus serotype-2 NS2B-NS3 protease using 2-Abz-Nle-Lys-Arg-Arg-Ser-(3-NO2)-Tyr-NH2 as substrate preincubated with protein for 15 mins followed by substrate addition measured for 15 mins by FRET assay; parameters: species or system dengue virus type 2
compounds and their reported IC50
The figure you give is taken to be in nM; do not add the unit.

Please review the entries below; each comes with its answer.
N=C(N)NCCC[C@H](NC(=O)c1cccs1)C(=O)N[C@@H](CCCCN)C(=O)N[C@@H](C(N)=O)c1ccc(OCC(=O)c2ccc(Br)cc2)cc1: 148
N=C(N)NCCC[C@H](NC(=O)C1CCC1)C(=O)N[C@@H](CCCCN)C(=O)N[C@@H](C(N)=O)c1ccc(OCc2ccccc2)cc1: 631
N=C(N)NCCC[C@H](NC(=O)c1ccc(Cl)s1)C(=O)N[C@@H](CCCCN)C(=O)N[C@@H](C(N)=O)c1ccc(OCc2ccccc2)cc1: 177

Task: Read off the recorded IC50 for N=C(N)NCCC[C@H](NC(=O)C1CCCC1)C(=O)N[C@@H](CCCCN)C(=O)N[C@@H](C(N)=O)c1ccc(OCc2ccccc2)cc1
Result: 701

Every entry's value here was drawn from ChEMBL document CHEMBL3739314.
